protocol_summary: Tissue distribution of radioactivity in mice
Format: in vivo, mouse
recorded_conditions: mouse spleen, 60 min; mean of three mice, range 1.1-1.9; read-out: Tissue distribution, % Dose/g
quantity_measured: tissue uptake at 1 h (%ID/g)
Numbers only, in %ID/g.

Could you tell me which tissue uptake at 1 h is on file for CN1CN(c2ccccc2)C2(CCN(CCCC(=O)c3ccc([18F])cc3)CC2)C1=O [[^18 F]-N-methylspiroperidol] ?
1.6

----------
protocol_summary: Tissue distribution of radioactivity in mice
Type: in vivo, mouse
recorded_conditions: mouse spleen, 5 min; mean of three mice, range 4.7-6.5; read-out: Tissue distribution, % Dose/g
quantity_measured: tissue uptake at 5 min (%ID/g)
One number for each entry, in %ID/g.

Could you tell me which tissue uptake at 5 min is on file for CN1CN(c2ccccc2)C2(CCN(CCCC(=O)c3ccc([18F])cc3)CC2)C1=O [[^18 F]-N-methylspiroperidol] ?
5.8

----------
protocol_summary: Tissue distribution of radioactivity in mice
Format: in vivo, mouse
recorded_conditions: mouse blood, 60 min; mean of three mice, range 0.40-0.50; read-out: Tissue distribution, % Dose/g
quantity_measured: tissue uptake at 1 h

Could you tell me which tissue uptake at 1 h is on file for CN1CN(c2ccccc2)C2(CCN(CCCC(=O)c3ccc([18F])cc3)CC2)C1=O [[^18 F]-N-methylspiroperidol] ?
0.45 %ID/g

----------
protocol_summary: Tissue distribution of radioactivity in mice
Type: in vivo, mouse
recorded_conditions: mouse heart, 60 min; mean of three mice, range 0.59-0.65; read-out: Tissue distribution, % Dose/g
quantity_measured: tissue uptake at 1 h (%ID/g)
One number for each entry, in %ID/g.

Could you tell me which tissue uptake at 1 h is on file for CN1CN(c2ccccc2)C2(CCN(CCCC(=O)c3ccc([18F])cc3)CC2)C1=O [[^18 F]-N-methylspiroperidol] ?
0.61

----------
protocol_summary: Baboon plasma analyses (total plasma radioactivity clearance and unchanged radioligand)
recorded_conditions: baboon, plasma, iv, % [^18 F]-N-Methylspiroperidol in Plasma, baboon plasma, 240 min after injection
quantity_measured: remaining at 4 h (%)
Answers are plain numbers, in %.

Could you tell me which remaining at 4 h is on file for CN1CN(c2ccccc2)C2(CCN(CCCC(=O)c3ccc([18F])cc3)CC2)C1=O [[^18 F]-N-methylspiroperidol] ?
9.4

----------
protocol_summary: Baboon plasma analyses (total plasma radioactivity clearance and unchanged radioligand)
recorded_conditions: baboon, plasma, iv, % of ^18 F in CH3 CN as [^18 F]-N-Methylspiroperidol, baboon plasma, 0.67 min after injection
quantity_measured: remaining at 40 s (%)
Give bare numbers, in %.

Could you tell me which remaining at 40 s is on file for CN1CN(c2ccccc2)C2(CCN(CCCC(=O)c3ccc([18F])cc3)CC2)C1=O [[^18 F]-N-methylspiroperidol] ?
88

----------
protocol_summary: Tissue distribution of radioactivity in mice
Assay type: in vivo, mouse
recorded_conditions: mouse liver, 5 min; mean of three mice, range 5.2-5.7; read-out: Tissue distribution, % Dose/g
quantity_measured: tissue uptake at 5 min (%ID/g)
Numbers only, in %ID/g.

Could you tell me which tissue uptake at 5 min is on file for CN1CN(c2ccccc2)C2(CCN(CCCC(=O)c3ccc([18F])cc3)CC2)C1=O [[^18 F]-N-methylspiroperidol] ?
5.4

----------
protocol_summary: Tissue distribution of radioactivity in mice
Type: in vivo, mouse
recorded_conditions: mouse kidneys, 60 min; mean of three mice, range 3.0-4.0; read-out: Tissue distribution, % Dose/g
quantity_measured: tissue uptake at 1 h (%ID/g)
One number for each entry, in %ID/g.

Could you tell me which tissue uptake at 1 h is on file for CN1CN(c2ccccc2)C2(CCN(CCCC(=O)c3ccc([18F])cc3)CC2)C1=O [[^18 F]-N-methylspiroperidol] ?
3.4

----------
protocol_summary: Baboon plasma analyses (total plasma radioactivity clearance and unchanged radioligand)
recorded_conditions: baboon, plasma, iv, % [^18 F]-N-Methylspiroperidol in Plasma, baboon plasma, 0.67 min after injection
quantity_measured: remaining at 40 s (%)
One number for each entry, in %.

Could you tell me which remaining at 40 s is on file for CN1CN(c2ccccc2)C2(CCN(CCCC(=O)c3ccc([18F])cc3)CC2)C1=O [[^18 F]-N-methylspiroperidol] ?
81

----------
protocol_summary: Tissue distribution of radioactivity in mice
Assay type: in vivo, mouse
recorded_conditions: mouse blood, 120 min; mean of four mice, range 0.15-0.27; read-out: Tissue distribution, % Dose/g
quantity_measured: tissue uptake at 2 h (%ID/g)
One number for each entry, in %ID/g.

Could you tell me which tissue uptake at 2 h is on file for CN1CN(c2ccccc2)C2(CCN(CCCC(=O)c3ccc([18F])cc3)CC2)C1=O [[^18 F]-N-methylspiroperidol] ?
0.19

----------
protocol_summary: Tissue distribution of radioactivity in mice
Assay type: in vivo, mouse
recorded_conditions: mouse liver, 60 min; mean of three mice, range 2.4-3.4; read-out: Tissue distribution, % Dose/g
quantity_measured: tissue uptake at 1 h (%ID/g)
Numbers only, in %ID/g.

Could you tell me which tissue uptake at 1 h is on file for CN1CN(c2ccccc2)C2(CCN(CCCC(=O)c3ccc([18F])cc3)CC2)C1=O [[^18 F]-N-methylspiroperidol] ?
2.9

----------
protocol_summary: Tissue distribution of radioactivity in mice
Type: in vivo, mouse
recorded_conditions: mouse spleen, 120 min; mean of four mice, range 0.40-0.73; read-out: Tissue distribution, % Dose/g
quantity_measured: tissue uptake at 2 h (%ID/g)
Give bare numbers, in %ID/g.

Could you tell me which tissue uptake at 2 h is on file for CN1CN(c2ccccc2)C2(CCN(CCCC(=O)c3ccc([18F])cc3)CC2)C1=O [[^18 F]-N-methylspiroperidol] ?
0.57

----------
protocol_summary: Tissue distribution of radioactivity in mice
Format: in vivo, mouse
recorded_conditions: mouse heart, 120 min; mean of four mice, range 0.18-0.35; read-out: Tissue distribution, % Dose/g
quantity_measured: tissue uptake at 2 h (%ID/g)
Give bare numbers, in %ID/g.

Could you tell me which tissue uptake at 2 h is on file for CN1CN(c2ccccc2)C2(CCN(CCCC(=O)c3ccc([18F])cc3)CC2)C1=O [[^18 F]-N-methylspiroperidol] ?
0.24

----------
protocol_summary: Metabolic stability and uptake in rat brain (striatum, cerebellum)
Type: in vivo, rat (male BNL R strain)
recorded_conditions: iv; rat cerebellum, 4 h after injection, n = 2; ind. values 85, 85
quantity_measured: remaining at 4 h (%)
Numbers only, in %.

Could you tell me which remaining at 4 h is on file for CN1CN(c2ccccc2)C2(CCN(CCCC(=O)c3ccc([18F])cc3)CC2)C1=O [[^18 F]-N-methylspiroperidol] ?
85

----------
protocol_summary: Metabolic stability and uptake in rat brain (striatum, cerebellum)
Format: in vivo, rat (male BNL R strain)
recorded_conditions: iv; rat striatum, 1 h after injection, n = 2; ind. values 95, 96
quantity_measured: remaining at 1 h (%)
One number for each entry, in %.

Could you tell me which remaining at 1 h is on file for CN1CN(c2ccccc2)C2(CCN(CCCC(=O)c3ccc([18F])cc3)CC2)C1=O [[^18 F]-N-methylspiroperidol] ?
96

----------
protocol_summary: Tissue distribution of radioactivity in mice
Assay type: in vivo, mouse
recorded_conditions: mouse liver, 120 min; mean of four mice, range 1.2-1.9; read-out: Tissue distribution, % Dose/g
quantity_measured: tissue uptake at 2 h (%ID/g)
Give bare numbers, in %ID/g.

Could you tell me which tissue uptake at 2 h is on file for CN1CN(c2ccccc2)C2(CCN(CCCC(=O)c3ccc([18F])cc3)CC2)C1=O [[^18 F]-N-methylspiroperidol] ?
1.4

----------
protocol_summary: Tissue distribution of radioactivity in mice
Format: in vivo, mouse
recorded_conditions: mouse blood, 5 min; mean of three mice, range 1.0-1.5; read-out: Tissue distribution, % Dose/g
quantity_measured: tissue uptake at 5 min (%ID/g)
Answers are plain numbers, in %ID/g.

Could you tell me which tissue uptake at 5 min is on file for CN1CN(c2ccccc2)C2(CCN(CCCC(=O)c3ccc([18F])cc3)CC2)C1=O [[^18 F]-N-methylspiroperidol] ?
1.2

----------
protocol_summary: Baboon plasma analyses (total plasma radioactivity clearance and unchanged radioligand)
recorded_conditions: baboon, plasma, iv, % [^18 F]-N-Methylspiroperidol in Plasma, baboon plasma, 10 min after injection
quantity_measured: remaining at 10 min (%)
One number for each entry, in %.

Could you tell me which remaining at 10 min is on file for CN1CN(c2ccccc2)C2(CCN(CCCC(=O)c3ccc([18F])cc3)CC2)C1=O [[^18 F]-N-methylspiroperidol] ?
43

----------
protocol_summary: Tissue distribution of radioactivity in mice
Format: in vivo, mouse
recorded_conditions: mouse small intestine, 120 min; mean of four mice, range 0.8-1.7; read-out: Tissue distribution, % Dose/g
quantity_measured: tissue uptake at 2 h (%ID/g)
Give bare numbers, in %ID/g.

Could you tell me which tissue uptake at 2 h is on file for CN1CN(c2ccccc2)C2(CCN(CCCC(=O)c3ccc([18F])cc3)CC2)C1=O [[^18 F]-N-methylspiroperidol] ?
1.3
